test system: COLO 205; test: NCI tumour cell line growth inhibition, 48 h
Active and inactive are the calls of the source. Rule as the data show it: active = GI50 up to about 1.1 µM and inactive = higher.
Entries annotated with measured GI50

Study these solved cases before continuing.
Molecule: Cc1nc(Nc2ccc(F)cc2)c2sc(=S)n(-c3ccc(F)cc3)c2n1
GI50: 14.5 µM (inactive)
--
Molecule: O=C1/C(=C/c2ccccc2)CCc2ccc([N+](=O)[O-])cc21
GI50: > 100 µM (inactive)

GI50 reported for this molecule CCc1c(OC(C)=O)c2c(NC3OC(COC(C)=O)C(OC(C)=O)C(OC(C)=O)C3OC(C)=O)nc(OC)nc2oc1=O (centres undefined) : > 100 µM (inactive)

Just so you know, measured GI50 for "C=C1C[C@]23CC[C@@H]4C(CO)(CO)CC(=O)C[C@]4(C)[C@@H]2CC[C@H]1C3" came out at > 100 µM (inactive)
